Numbers sourced from ChEMBL document CHEMBL5154945.

experiment: Permeability of the compound at pH 7.4 incubated for 30 mins by UV plate reader based PAMPA assay; settings: pampa, pH 7.4, 0.5 h
measured_parameter: permeability

Field: example entries. Status: answers known.
compound: N=c1c2c(-c3ccccc3)c(-c3ccccc3)n(CCc3ccccc3)c2ncn1CC1CCCO1 (stereo unspecified)
measured_parameter: permeability
recorded_measurement: > 1000 10^-6 cm/s

compound: N=c1c2c(-c3ccccc3)cn(Cc3ccccc3)c2ncn1C1CCOCC1
measured_parameter: permeability
recorded_measurement: 1729 10^-6 cm/s

compound: N#Cc1c(-c2ccccc2)c(-c2ccccc2)n(Cc2ccccc2)c1/N=C/N[C@H]1CC[C@H](O)CC1
measured_parameter: permeability
recorded_measurement: 327.5 10^-6 cm/s

compound: CN(C)CCn1cnc2c(c(-c3ccccc3)c(-c3ccccc3)n2Cc2ccccc2)c1=N
measured_parameter: permeability
recorded_measurement: 1358 10^-6 cm/s

compound: N=c1c2c(-c3ccccc3)c(-c3ccccc3)n(CCc3ccccc3)c2ncn1CC1CCOCC1
measured_parameter: permeability
recorded_measurement: 1229.2 10^-6 cm/s

compound: N=c1c2c(-c3ccccc3)c(-c3ccccc3)n(CC3CC3)c2ncn1C1CCOCC1
measured_parameter: permeability
recorded_measurement: > 1000 10^-6 cm/s

compound: N=c1c2c(-c3ccccc3)c(-c3ccccc3)n(CCc3ccccc3)c2ncn1CC1CCOC1 (stereo unspecified)
measured_parameter: permeability
recorded_measurement: > 1000 10^-6 cm/s

compound: COc1ccc(-c2c(-c3ccc(OC)cc3)n(Cc3ccccc3)c3ncn(CCO)c(=N)c23)cc1
measured_parameter: permeability
recorded_measurement: > 1000 10^-6 cm/s

compound: N=c1c2c(-c3ccccc3)c(-c3ccccc3)n(Cc3ccc(S(N)(=O)=O)cc3)c2ncn1CC1CCOCC1
measured_parameter: permeability
recorded_measurement: < 1 10^-6 cm/s

compound: N=c1c2c(-c3ccccc3)c(-c3ccccc3)n(Cc3ccccc3)c2ncn1CCCN1CCN(c2ccccc2)CC1
measured_parameter: permeability
recorded_measurement: > 1000 10^-6 cm/s

State the recorded permeability for every item in the following list.
1. COc1ccc(-c2c(-c3ccc(OC)cc3)n(Cc3ccccc3)c3ncn([C@H]4CC[C@H](OC)CC4)c(=N)c23)cc1
2. Cc1c(C)n(Cc2ccccc2)c2ncn([C@H]3CC[C@H](O)CC3)c(=N)c12
3. N=c1c2c(-c3ccccc3)c(-c3ccccc3)n(Cc3ccccc3)c2ncn1CCCCCO
4. C[C@H]([C@@H](O)c1ccccc1)n1cnc2c(c(-c3ccccc3)c(-c3ccccc3)n2Cc2ccccc2)c1=N

*A*
1. > 1000 10^-6 cm/s
2. < 1 10^-6 cm/s
3. > 1000 10^-6 cm/s
4. 606 10^-6 cm/s

State the recorded permeability for every item in the following list.
1. COc1ccc(-c2c(-c3ccc(OC)cc3)n(Cc3ccccc3)c3ncn([C@@H]4CCCC[C@H]4O)c(=N)c23)cc1 (mixture of isomers)
2. N=c1c2c(-c3ccccc3)c(-c3ccccc3)n(Cc3ccccc3)c2ncn1C[C@@H]1CCCC[C@H]1CO (relative stereo)

*A*
> 1000 10^-6 cm/s
> 1000 10^-6 cm/s
